Assay: amyloid nucleation score (Sup35N fusion, yeast selection) (log enrichment); library NNK1; higher = more nucleation; inactive = no reads after selection;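 also: zero at mode of non-aggregating sequences after 7 days selection at 30°C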
Listing of entries alongside the reported amyloid nucleation score.
Just the number, please.

Known results for substances:
{"substance": "NRTYVGWEVILPKVWNSSVY", "amyloid nucleation score": -0.663}
{"substance": "RCMGGGFRRRVNMYETPGIR", "amyloid nucleation score": -0.387}
{"substance": "NCHREFIHWVILNSGSSAHM", "amyloid nucleation score": 1.94}
{"substance": "KTLSLLIL", "amyloid nucleation score": 0.387}
{"substance": "YRGLGFVERESRDRG", "amyloid nucleation score": -0.418}

Query block: Look up amyloid nucleation score for this substance: AGGVKSCTKRFN
Result block: -0.232

Query block: Thanks! And SCGTYFLFICHKSLYWHVHI ?
Result block: -0.594

Query block: Please give the result for TISKLGQPYRRNSKPL too.
Result block: -0.378

Query block: Let us now turn to FSHAGD
Result block: -0.494

---

Assay: amyloid nucleation score (Sup35N fusion, yeast selection) (log enrichment); library NNK1; higher = more nucleation; inactive = no reads after selection
Heads up, the class ranges for amyloid nucleation score are group A (below -0.5), group B (-0.5 to below 0.2), group C (0.2 or more)

Answered cases to consult:
{"substance": "FGWRISILLVPHRLFRGLPQ", "cat": "group A"}
{"substance": "RFVCQPNRWFHNKRGVGRET", "cat": "group C"}
{"substance": "MHYRGKFLHDHWHESH", "cat": "group B"}
{"substance": "SLKDVPISCFNYMHC", "cat": "group C"}

Query block: Looking at VIFYSLYSSVWFDSIYEGLT , which class would you pick?
Result block: group A

Query block: One more substance: FEFDNR
Result block: group B

Query block: // repeat for CEEKCSHNVGTY and report
Result block: group C

Query block: Item: LSTYTMLF
Result block: group B

---

Assay: amyloid nucleation score (Sup35N fusion, yeast selection) (log enrichment); library NNK2; higher = more nucleation; inactive = no reads after selection
just bin them by amyloid nucleation score: lower = under 0.5, middle = from 0.5 up to 2, upper = 2 and over

# count of solved cases: 6
{"substance": "KFKLLMTSRWDTFNVADTYD", "cat": "upper"}
{"substance": "SNMIHDEIWLMGEDSDF", "cat": "middle"}
{"substance": "RDQRLCV", "cat": "lower"}
{"substance": "SCTALVKEKMRG", "cat": "lower"}
{"substance": "WVSCVVCFWIDHESAALESV", "cat": "upper"}
{"substance": "RCNIWCHFPVCRAINIMLQA", "cat": "lower"}

Query block: For RSHMSRLIVDFNTG , which amyloid nucleation score bin applies?
Result block: lower

Query block: Param item: RFRKSLGALALRRIVGSEAM
Result block: middle

---

Assay: amyloid nucleation score (Sup35N fusion, yeast selection) (log enrichment); library NNK2; higher = more nucleation; inactive = no reads after selection
Here, each record is paired with measured amyloid nucleation score data.
Give your answer as a number; write no unit.

These solved cases illustrate the format of a correct answer.
{"ordered residues": "TRLPEMGLMDLITRSCYNRD", "amyloid nucleation score": -1.35}
{"ordered residues": "PIRLQIWVWPVPKR", "amyloid nucleation score": 0.8}
{"ordered residues": "LYDTNVKWVFSCYSKACSCK", "amyloid nucleation score": -0.323}

Query block: If you can, please state the reported amyloid nucleation score value of INWSHRGIISLDERMIIQYV .
Result block: 0.154

Query block: Also need KYRKSGSERTRARTGVCTVW , thanks.
Result block: 0.585

Query block: Continue with LCRNSSVFRCSGK
Result block: 0.311

Query block: Next sequence: VFMGNSLHFRRSTVAHWRSN
Result block: 1.39

Query block: Next record, please: RSSLEKIMIGNFNYVRVKLH
Result block: 2.28

Query block: Moving on to LTIVLQLGLL
Result block: 8.52

Query block: Entry to check: YWVFMNSRLVAIGPANALVV
Result block: -0.69

Query block: Can you handle ENSANNLGMFERSSRYRLSG next?
Result block: 0.356

Query block: Further, for VMQVVLGNMLMRRSQVLYNW ?
Result block: -0.62

Query block: Then what about the sequence YICLAVGDVNGEMNYWVIRG ?
Result block: 6.87

Query block: Lookup VTWALCAGGRQFVTFSS
Result block: 8.51

Query block: Moving on to RTGRDFLSSIFFTSK
Result block: -1.8

Query block: Try VLWTIKGFPC next.
Result block: 1.63

---

Assay: amyloid nucleation score (Sup35N fusion, yeast selection) (log enrichment); library NNK3; higher = more nucleation; inactive = no reads after selection
readout type: amyloid nucleation score

Below: 8 substances and their reported amyloid nucleation score.
{"substance": "LFFSNT", "amyloid nucleation score": "inactive"}
{"substance": "AGSIGPVRSRGIMLTRLEV", "amyloid nucleation score": -0.42}
{"substance": "KSLHTGGGLDSRYGS", "amyloid nucleation score": "inactive"}
{"substance": "YCGLVHVSHLGVGREIGRRV", "amyloid nucleation score": "inactive"}
{"substance": "IINFSYANAVVIVWLNISMG", "amyloid nucleation score": 1.08}
{"substance": "DYTPGGCRPTTNCLS", "amyloid nucleation score": "inactive"}
{"substance": "PLWSRCLYRLSAGGACSVWK", "amyloid nucleation score": "inactive"}
{"substance": "VIHEDMVLTGF", "amyloid nucleation score": "inactive"}

Continue with the substance presented below.
Query block: What amyloid nucleation score value was documented for this substance, YFMVINR ?
Result block: 1.98

---

Test: amyloid nucleation score (Sup35N fusion, yeast selection) (log enrichment); library NNK2; higher = more nucleation; inactive = no reads after selection
Note: every record was labeled by where its amyloid nucleation score sits among lo: < -0.1; med: ≥ -0.1 and < 2; hi: ≥ 2

Observe how each entry below is paired with its result.
{"substance": "RLTDSSTGDFKNL", "cat": "lo"}
{"substance": "KYGAPS", "cat": "med"}
{"substance": "PKLPLAESR", "cat": "lo"}

Query block: GET /class?item= RLYSFCGIN
Result block: med

Query block: Item: SHRPWVWGQNISMKYRSVLK
Result block: hi

Query block: Then RMKSFLLNFARNSLCVVRHG ?
Result block: med

Query block: Also need IAACLFYNRSVNIFTGVDGL , thanks.
Result block: hi

Query block: One more substance: SDQQYGCDWVWLGRGPIEVA
Result block: med

Query block: Further, for GVFLGALCVFTSCLSELWMC ?
Result block: lo

---

Experiment: amyloid nucleation score (Sup35N fusion, yeast selection) (log enrichment); library NNK3; higher = more nucleation; inactive = no reads after selection
readout type: amyloid nucleation score

// solved cases for amyloid nucleation score follow
{"ordered residues": "FWQSIYDGMGSVIFHHGFTQ", "amyloid nucleation score": 0.434}
{"ordered residues": "SVKNWPNVN", "amyloid nucleation score": "inactive"}
{"ordered residues": "SYCATCHIPRENMSLQCVME", "amyloid nucleation score": 1.3}
{"ordered residues": "LQYLVNLLMQWVLRKIVQKV", "amyloid nucleation score": "inactive"}
{"ordered residues": "HLIMNSDLGAATNIFMNPVA", "amyloid nucleation score": "inactive"}
{"ordered residues": "HCEFRSQSDTNVVNLCGQGW", "amyloid nucleation score": "inactive"}

Query block: So what's the measured amyloid nucleation score for this one? MLFHDSVSSTWRIFELCSRC
Result block: inactive

Query block: Moving on to PFLTTKIVQVAGDLVNMFYE
Result block: 1.24

Query block: Try AEIVCICV next.
Result block: 1.11

Query block: Check RWWTCSQSNSGVIFEQIYQT too.
Result block: inactive

Query block: Could you do the same for GSIDFSSSCECIGDWHHRGY , please?
Result block: inactive

Query block: Moving on to the next sequence: QSWLMPFCLVSSTWKV
Result block: inactive

Query block: Repeat for the following sequence: NIIVWPVCGILLYTHSIS
Result block: inactive

Query block: Also check GYYLLTVCGDWCSVSVHSGF
Result block: 2.13

Query block: Field entry: YKVKIPMVCAVISGKSTWVG
Result block: inactive

Query block: Now consider GTLVWNCDGCLDLKGRWVGG and answer again.
Result block: inactive

Query block: Check SSCKDPRRKE too.
Result block: inactive

---

Assay: amyloid nucleation score (Sup35N fusion, yeast selection) (log enrichment); library NNK1; higher = more nucleation; inactive = no reads after selection
readout type: amyloid nucleation score
The response must contain the number and no unit.

For orientation, consider the following solved cases.
{"substance": "EPFGLGFRRNDLSYANRVGS", "readout type": "amyloid nucleation score", "endpoint value": -0.887}
{"substance": "YLELLPAYRLFTGLVVLLMI", "readout type": "amyloid nucleation score", "endpoint value": 0.736}
{"substance": "CYLACLLQTHYND", "readout type": "amyloid nucleation score", "endpoint value": -1.18}

Query block: Using the record for NNLSANVSLGPGCAGGQPRA , report its amyloid nucleation score.
Result block: 0.764

Query block: One more substance: DYFWSSSEGWPEFQNIKSIG
Result block: -0.07

Query block: And for IWTNTLNFTARFANVLAGTG ?
Result block: -0.705

Query block: Input NSVFVPFGKEF
Result block: -0.493

Query block: Entry LAWYFTPFVDHS please
Result block: 1.13

Query block: Queued: VCFALSI
Result block: -0.098

Query block: What about this substance? DRWLSM
Result block: -0.025

Query block: Continue with GVGEIVSNRFAIS
Result block: -0.409

Query block: // next record WFFGRYHGTGQNMFRG
Result block: 2.15

Query block: Similarly, WHILPQVWGIVHMIRSNLVC ?
Result block: 0.99
